substrate: BHET; conditions: 120 h

| Protein | plate clearing |
| --- | --- |
| unnamed (protein) MPGYQGTQQNLQWLAPRLASWGFVVINVGTTTLSDDPASRGRQISAAGTQLLALGNATGNPVSGKTDGTLGAVGHSMGGGGVMAALRDDARFRAGVPTAPYYPNMNFSQVTDPTFFLTCQSDPVAHGNTYAAPWYTSMTQAEKLYIEVPGDHLCPMTGSGDKAKQGKWIVSFLSLWLRADTRFSPFLCGPVRDADKNNTSLVTRWMDTCQF | not clears the plate |
| unnamed (protein) MMKSIIARLAIGTSVLLFSVSAFSFTPGPTPDPDPDPNPNPCEVDCDFSRGPNPTASYLEAASGPYTVRTMRVSSSVTGFGGGTIHYPTGTTGKMGAIAVVPGFLAGESSISWWGPRLASHGFVVITIATNSAFDQPASREAQLGRALDYVIAQSNASGNAISGMVDSSRVGAMGWSMGGGGTLRIASGGRLSAAIPLAPWHTGSNDFNQISTPTMIIACENDGTAPVNSHASPFYNRIPASTDKAYLEINNGGHSCANGGGSNGGLLGKYGVSWMKRFIDKDTRYNQFLCGPNHASNSAISEYRETCNY | not clears the plate |
| unnamed (protein) MERKNSRRSWAIGLGLLVLAATSAHAQTNPYQKGPDPTSASLNATSGSFSVATSSVSSAVSGFGGGTIYYPTTTGTYAVLAISPGFTATQSSIAWLGRRIATHGFVVITIDTNSTLDQPPSRATQLMAALNYVTNSSSATVRAKVDASRRGVAGHSMGGGGTLYAARDNPSLKAAVPLTAWSTLKSFSSVQVPTLVVGAESDSIAPVSSHSIPFYNSLSGSLDKAYAELNGASHLAPNSTNTPIGRYSVAWVKRFMDNDTRYTPFLCGTPHT | not clears the plate |

src = the PETadex activity labels
